- Test system: MDA-N
- test.details: NCI tumour cell line growth inhibition, 48 h
Measured TGI by item
metric.name: TGI

In [3]: df
Out[3]:
                                   molecule  metric_name  recorded_measurement
0  Nc1nc2c(C(=O)O)c3ccc([N+](=O)[O-])cc3c(=O)n2c2ccccc12          TGI              > 100 µM
1  C[N+](C)(C)c1ncnc2c1ncn2C1CCCO1 (stereo not drawn)          TGI              > 100 µM
2  COc1cc(Oc2nc3ccc(C(F)(F)F)cc3nc2-c2ccccc2)cc(OC)c1OC          TGI              > 100 µM
